Molecular target: human D3 dopamine receptor (Homo sapiens (Human))
Assay: Radioligand binding (125I-IABN competition), D3
Conditions: calculated D2 Ki/D3 Ki
Note to self: values exactly at 30 are condition met. So D2/D3 (D3 selectivity ratio, D2 Ki/D3 Ki) at or above 30 is condition met, below is condition not met.

Hi team, for CC(C)(C)c1nc(N2CCN(CCCCNC(=O)N3CCC(Cc4ccccc4)CC3)CC2)cc(C(F)(F)F)n1 [Compound 50] , is the recorded D2/D3 (D3 selectivity ratio, D2 Ki/D3 Ki) at or above 30?
condition met

Confirm if D2/D3 (D3 selectivity ratio, D2 Ki/D3 Ki) reported for the compound CC(C)(C)c1nc(C2CC2)cc(N2CCN(CCCCNC(=O)N3CCN(c4ccccc4)CC3)CC2)n1 [Compound 9] is 30 or above.
condition met

Assess whether reported D2/D3 (D3 selectivity ratio, D2 Ki/D3 Ki) for Cc1nc(N2CCN(CCCCNC(=O)N3CCn4c(C)nnc4C3)CC2)cc(C(C)(C)C)n1 [Compound 88] sits at 30 or higher.
condition not met

Hi, just wondering whether O=C(NCCCCN1CCN(c2ccnc3cc(Cl)ccc23)CC1)C1CCC(c2ccccc2)CC1 (stereo not drawn) [Compound 105] shows D2/D3 (D3 selectivity ratio, D2 Ki/D3 Ki) of 30 or higher.
condition not met

Decide: is the reported value of D2/D3 (D3 selectivity ratio, D2 Ki/D3 Ki) for CC(C)(C)c1nc(N2CCN(CCCCNC(=O)N3CCN(c4ccc(Cl)c(Cl)c4)CC3)CC2)cc(C(F)(F)F)n1 [Compound 60] equal to or greater than 30?
condition not met

hey, is D2/D3 (D3 selectivity ratio, D2 Ki/D3 Ki) for this one >= 30? Cc1nc(N2CCN(CCCCNC(=O)N3CCc4[nH]c5ccc(Cl)cc5c4C3)CC2)cc(C(C)(C)C)n1 [Compound 95]
condition not met

Please check the record COc1ccccc1N1CCN(C(=O)NCCCCN2CCN(c3cc(C(F)(F)F)nc(C(C)(C)C)n3)CC2)CC1 [Compound 19] and state if its D2/D3 (D3 selectivity ratio, D2 Ki/D3 Ki) is at or above 30.
condition met

In plain terms: is recorded D2/D3 (D3 selectivity ratio, D2 Ki/D3 Ki) at least 30 for CC(C)(C)c1nc(N2CCN(CCCCNC(=O)N3CCC(c4ccccc4)CC3)CC2)cc(C(F)(F)F)n1 [Compound 48] ?
condition met

Quick check, D2/D3 (D3 selectivity ratio, D2 Ki/D3 Ki) >= 30? Cc1cc(N2CCN(CCCCNC(=O)N3CCN(S(=O)(=O)c4ccccc4)CC3)CC2)nc(C(C)(C)C)n1 [Compound 46]
condition not met

Textbook exercise: given the entry O=C(NCCCCN1CCN(c2cccc(Cl)c2Cl)CC1)N1CCC(c2ccccc2)CC1 [Compound 47] , state whether its D2/D3 (D3 selectivity ratio, D2 Ki/D3 Ki) is greater than or equal to 30.
condition met

Identify whether the reported D2/D3 (D3 selectivity ratio, D2 Ki/D3 Ki) of the following compound is 30 or greater: O=C(NCCCCN1CCN(c2ccc3ccccc3n2)CC1)c1cn2cccnc2n1 [Compound 126]
condition not met

hey, is D2/D3 (D3 selectivity ratio, D2 Ki/D3 Ki) for this one >= 30? COc1ccc2[nH]c3c(c2c1)CN(C(=O)NCCCCN1CCN(c2cc(C(C)(C)C)nc(C)n2)CC1)CC3 [Compound 96]
condition met

Would you say Cc1nc(N2CCN(CCCCNC(=O)N3CCN(c4ccccc4)CC3)CC2)cc(C(C)(C)C)n1 [Compound 6] shows D2/D3 (D3 selectivity ratio, D2 Ki/D3 Ki) at minimum 30?
condition met

Textbook exercise: given the entry Cc1cc(N2CCN(CCCCNC(=O)N3CCN(c4ccccc4)CC3)CC2)nc(C(F)(F)F)n1 [Compound 7] , state whether its D2/D3 (D3 selectivity ratio, D2 Ki/D3 Ki) is greater than or equal to 30.
condition met

Check the entry CC(C)(C)c1nc(N2CCN(CCCCNC(=O)N3CCN(c4ccc(Cl)cc4)CC3)CC2)cc(C(F)(F)F)n1 [Compound 57] : does D2/D3 (D3 selectivity ratio, D2 Ki/D3 Ki) equal or exceed 30?
condition not met

###

Kindly supply the reported pKi values for the records listed here.
Target: human D3 dopamine receptor (Homo sapiens (Human), UniProt P35462)
Sequence (P35462 whole entry): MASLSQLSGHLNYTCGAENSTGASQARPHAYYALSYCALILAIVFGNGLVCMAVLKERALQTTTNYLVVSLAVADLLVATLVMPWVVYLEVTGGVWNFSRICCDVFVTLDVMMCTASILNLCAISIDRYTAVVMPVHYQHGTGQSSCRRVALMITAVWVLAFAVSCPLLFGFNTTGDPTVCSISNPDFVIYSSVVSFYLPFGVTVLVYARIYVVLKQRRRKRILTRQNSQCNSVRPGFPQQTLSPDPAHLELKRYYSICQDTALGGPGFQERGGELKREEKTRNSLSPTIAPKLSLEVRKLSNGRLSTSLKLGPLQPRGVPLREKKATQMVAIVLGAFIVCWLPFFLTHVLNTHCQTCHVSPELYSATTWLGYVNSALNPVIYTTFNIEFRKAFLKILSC
Give only the number. pKi is defined as minus log10 of concentration in molar units.

Return value of pKi for input `CC(C)(C)c1nc(N2CCN(CCCCNC(=O)N3CCc4[nH]c5ccc(C(F)(F)F)cc5c4C3)CC2)cc(C(F)(F)F)n1` , no commentary.
7.07

# return recorded pKi for entry `CC(C)(C)c1nc(N2CCN(CCCCNC(=O)N3CCN(c4ccc(C#N)cc4)CC3)CC2)cc(C(F)(F)F)n1`
7.71

For the compound `CN1CCC(N2CCN(C(=O)NCCCCN3CCN(c4cc(C(F)(F)F)nc(C(C)(C)C)n4)CC3)CC2)CC1` , give its reported pKi.
7.74

Look up and state reported pKi for `CC(C)(C)c1nc(N2CCN(CCCCNC(=O)c3cn4cccnc4n3)CC2)cc(C(F)(F)F)n1`
7.93

Please report pKi for the following compound: `O=C(NCCCCN1CCN(c2ccnc3cc(C(F)(F)F)ccc23)CC1)c1cn2ccccc2n1`
7.01

Give pKi for the following compound: `CC(C)(C)c1cc(N2CCN(CCCCNC(=O)N3CCN(c4ccccc4)CC3)CC2)cc(C(C)(C)C)c1`
6.96

Please list pKi recorded for the compound `CN(C)Cc1cccc2nc(C(=O)NCCCCN3CCN(c4cc(C(F)(F)F)nc(C(C)(C)C)n4)CC3)cn12`
7.56

###

Molecular target: human D2 receptors (Homo sapiens (Human), UniProt P14416)
Sequence (P14416 whole entry): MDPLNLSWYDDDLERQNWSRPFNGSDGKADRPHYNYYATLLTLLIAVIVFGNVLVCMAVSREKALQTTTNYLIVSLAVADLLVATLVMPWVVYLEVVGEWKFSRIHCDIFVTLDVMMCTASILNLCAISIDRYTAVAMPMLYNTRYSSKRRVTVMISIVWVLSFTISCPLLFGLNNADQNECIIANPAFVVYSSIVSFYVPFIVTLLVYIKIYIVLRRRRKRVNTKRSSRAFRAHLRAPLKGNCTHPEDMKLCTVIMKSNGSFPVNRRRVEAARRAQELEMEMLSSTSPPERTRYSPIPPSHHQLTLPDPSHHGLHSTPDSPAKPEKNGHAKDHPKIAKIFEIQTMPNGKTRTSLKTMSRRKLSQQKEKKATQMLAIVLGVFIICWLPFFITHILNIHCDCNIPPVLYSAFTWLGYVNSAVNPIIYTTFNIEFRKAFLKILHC
Experiment: D2 Mitogenesis Functional Assay (3H-thymidine uptake, CHOp-D2 cells)
Assay type: cell-based
Details: inhibition of quinpirole (30 nM final) stimulation of mitogenesis; read-out: D2 Antagonist IC50
PARAMETER: IC50

Provide measured IC50 on human D2 receptors (Homo sapiens (Human), UniProt P14416) for `CC(C)(C)c1nc(N2CCN(CCCCNC(=O)c3cn4ccccc4n3)CC2)cc(C(F)(F)F)n1` please.
2300 nM

Supply IC50 measured with human D2 receptors (Homo sapiens (Human), UniProt P14416) for `CC(C)(C)c1nc(N2CCN(CCCCNC(=O)c3cn4ccncc4n3)CC2)cc(C(F)(F)F)n1` .
420 nM

Give the observed IC50 of `CC(C)(C)c1nc(N2CCN(CCCCNC(=O)c3cn4cccnc4n3)CC2)cc(C(F)(F)F)n1` for human D2 receptors (Homo sapiens (Human), UniProt P14416).
205 nM

Specify IC50 for `CC(C)(C)c1nc(N2CCN(CCCCNC(=O)c3cn4nc(Cl)ccc4n3)CC2)cc(C(F)(F)F)n1` , system human D2 receptors (Homo sapiens (Human), UniProt P14416).
1160 nM

###

These molecules were tested on human D3 dopamine receptor (Homo sapiens (Human)); Ki is the recorded read-out.
Give the quantity in µM, number only.

// fetch Ki given entry `CC(C)(C)c1nc(N2CCN(CCCCNC(=O)N3CCc4[nH]c5ccccc5c4C3)CC2)cc(C(F)(F)F)n1`
0.11

Could you please provide reported Ki for `CN(C)Cc1c(C(=O)NCCCCN2CCN(c3cc(C(F)(F)F)nc(C(C)(C)C)n3)CC2)nc2ccccn12` ? Thanks!
0.0288

For the molecule `CC(C)N1CCN(C(=O)NCCCCN2CCN(c3cc(C(F)(F)F)nc(C(C)(C)C)n3)CC2)CC1` , report Ki.
0.0096

Could you please provide reported Ki for `Cc1cccc(N2CCN(C(=O)NCCCCN3CCN(c4cc(C(F)(F)F)nc(C(C)(C)C)n4)CC3)CC2)c1C` ? Thanks!
0.0299

Provide measured Ki value, entry: `COc1ccc2[nH]c3c(c2c1)CN(C(=O)NCCCCN1CCN(c2cc(C(C)(C)C)nc(C)n2)CC1)CC3`
0.0749

Please give the documented Ki of `CN1CCN(C(=O)NCCCCN2CCN(c3cc(C(F)(F)F)nc(C(C)(C)C)n3)CC2)CC1`
0.0098

Tell me measured Ki for CC(C)(C)c1nc(N2CCN(CCCCNC(=O)N3CCN(C4CC4)CC3Cc3ccccc3)CC2)cc(C(F)(F)F)n1 (stereo not drawn) please.
0.0738

Please indicate Ki recorded for `CC(C)(C)c1nc(N2CCN(CCCCNC(=O)N3CCN(c4cccnc4)CC3)CC2)cc(C(F)(F)F)n1`
0.0059

Look up Ki of `CC(C)(C)c1nc(C2CC2)cc(N2CCN(CCCCNC(=O)N3CCN(c4ccccc4)CC3)CC2)n1` and report it.
0.0151

Fill in Ki for record `CC(C)(C)c1nc(N2CCN(CCCCNC(=O)N3CCc4ccccc4C3)CC2)cc(C(F)(F)F)n1`
0.0229

Hello, please tell me recorded Ki for this one: `O=C(NCCCCN1CCN(c2ccc3ccccc3n2)CC1)N1CCN(c2ccccc2)CC1`
0.0957

Output Ki of `O=C(NCCCCN1CCN(c2cccc(Cl)c2Cl)CC1)N1CCC(c2ccccc2)CC1`
0.0019

Return reported Ki. Input molecule: `O=C(NCCCCN1CCN(c2ccccc2)CC1)N1CCN(c2ccccc2)CC1`
0.002

Assign Ki to the following record: `Cc1ccccc1N1CCN(C(=O)NCCCCN2CCN(c3cc(C(F)(F)F)nc(C(C)(C)C)n3)CC2)CC1`
0.0706

Tell me Ki reported for `CC(C)(C)c1nc(N2CCN(CCCCNC(=O)N3CCN(c4ccc(Cl)cc4)CC3)CC2)cc(C(F)(F)F)n1`
0.0355

Kindly indicate its recorded Ki. Item: `CCN1CCN(C(=O)NCCCCN2CCN(c3cc(C(F)(F)F)nc(C(C)(C)C)n3)CC2)CC1`
0.0086

Query Ki for `CC(C)(C)c1nc(N2CCN(CCCCNC(=O)N3CCN(c4ccccn4)CC3)CC2)cc(C(F)(F)F)n1`
0.008

Tell me its Ki given `CC(C)(C)c1nc(N2CCN(CCCCNC(=O)N3CCc4ccccc4CC3)CC2)cc(C(F)(F)F)n1` as the entry.
0.0023

Identify Ki associated with the molecule `CC(C)(C)c1nc(N2CCN(CCCCNC(=O)N3CCN(S(=O)(=O)c4ccccc4)CC3)CC2)cc(C(F)(F)F)n1`
0.138

Give recorded Ki. `O=C(NCCCCN1CCN(c2ccc3ccccc3n2)CC1)c1cn2cccnc2n1`
0.161

Annotate the molecule `CC(C)(C)c1nc(N2CCN(CCCCNC(=O)N3CCC(N4CCCCC4)CC3)CC2)cc(C(F)(F)F)n1` with its measured Ki.
0.0099

Name the recorded Ki of the item `O=C(NCCCCN1CCN(c2ncnc3ccccc23)CC1)c1cn2ccccc2n1` in your answer.
0.253

Fill in Ki for record CC(C)(C)c1nc(N2CCN(CCCCNC(=O)N3CCCC(c4ccccc4)CC3)CC2)cc(C(F)(F)F)n1 (stereo not drawn)
0.129

Give the measured Ki for `Cc1cc(N2CCN(CCCCNC(=O)C3CCN(c4ccc(C(F)(F)F)cn4)CC3)CC2)nc(C(C)(C)C)n1`
0.0306

Find the measured Ki of `CC(C)(C)c1nc(N2CCN(CCCCNC(=O)c3cn4ccccc4n3)CC2)c2ccccc2n1` and report it.
0.0782

Recall and state the measured Ki for `CC(C)(C)c1cc(N2CCN(CCCCNC(=O)c3cn4ccccc4n3)CC2)nc(C(C)(C)C)n1` .
0.0188

Provide only the value of recorded Ki for CC(C)(C)c1nc(N2CCN(CCCCNC(=O)N3CCN(C4CC4)CC3c3ccccc3)CC2)cc(C(F)(F)F)n1 (stereo not drawn)
0.118

Tell me Ki reported for `COc1ccc2c(c1)CN(C(=O)NCCCCN1CCN(c3cc(C(F)(F)F)nc(C(C)(C)C)n3)CC1)C2`
0.0023

Provide measured Ki value, entry: `CC(C)(C)c1nc(N2CCN(CCCCNC(=O)c3cn4ccncc4n3)CC2)cc(C(F)(F)F)n1`
0.008

Dear colleague, please send me the reported Ki for `CC(C)(C)c1cc(N2CCN(CCCCNC(=O)N3CCc4[nH]c5ccccc5c4C3)CC2)nc(C(C)(C)C)n1` when you can.
0.0095

Recorded values, source patent US9598387B2.
